Target: EGFR wild type (Homo sapiens)
Construct: purchased Carna Bio
Sequence (P00533 25-1210): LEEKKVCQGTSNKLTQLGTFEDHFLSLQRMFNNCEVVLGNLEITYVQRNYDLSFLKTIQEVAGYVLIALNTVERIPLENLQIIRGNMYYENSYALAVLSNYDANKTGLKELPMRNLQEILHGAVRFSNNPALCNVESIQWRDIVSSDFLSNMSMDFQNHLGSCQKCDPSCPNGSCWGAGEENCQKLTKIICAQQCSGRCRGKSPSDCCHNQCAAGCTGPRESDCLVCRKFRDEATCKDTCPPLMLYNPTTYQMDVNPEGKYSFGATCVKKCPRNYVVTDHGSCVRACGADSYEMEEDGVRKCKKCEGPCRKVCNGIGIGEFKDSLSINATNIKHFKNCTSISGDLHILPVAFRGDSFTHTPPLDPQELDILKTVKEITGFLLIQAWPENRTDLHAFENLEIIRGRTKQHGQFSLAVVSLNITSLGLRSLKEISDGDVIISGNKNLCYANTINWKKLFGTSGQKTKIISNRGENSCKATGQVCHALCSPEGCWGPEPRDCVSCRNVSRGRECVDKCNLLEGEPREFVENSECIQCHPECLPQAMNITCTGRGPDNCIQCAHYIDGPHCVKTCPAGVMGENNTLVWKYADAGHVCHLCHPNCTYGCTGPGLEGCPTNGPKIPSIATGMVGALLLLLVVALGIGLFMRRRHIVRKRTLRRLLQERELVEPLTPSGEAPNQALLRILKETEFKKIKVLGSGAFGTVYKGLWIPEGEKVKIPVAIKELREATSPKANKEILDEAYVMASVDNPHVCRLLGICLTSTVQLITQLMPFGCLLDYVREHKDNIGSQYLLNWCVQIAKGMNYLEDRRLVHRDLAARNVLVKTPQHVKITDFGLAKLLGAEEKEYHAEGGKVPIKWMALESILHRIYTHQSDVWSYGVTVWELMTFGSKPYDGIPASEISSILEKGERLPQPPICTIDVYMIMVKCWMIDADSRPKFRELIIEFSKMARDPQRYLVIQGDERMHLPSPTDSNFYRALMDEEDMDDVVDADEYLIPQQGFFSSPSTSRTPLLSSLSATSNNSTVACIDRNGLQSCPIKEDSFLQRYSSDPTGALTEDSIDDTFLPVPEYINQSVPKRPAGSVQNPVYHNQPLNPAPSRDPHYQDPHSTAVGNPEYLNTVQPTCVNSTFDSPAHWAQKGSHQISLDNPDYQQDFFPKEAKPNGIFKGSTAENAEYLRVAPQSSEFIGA
Experiment: Inhibition of EGFR wild type biochemical enzymatic activity (HTRF)
Details: EGFR WT, 1 mM ATP, 1 h, room temperature, read-out: IC50 (nM) @WT
Metric: IC50 (nM)

• Cn1ncc2c1OCCN1CC3CCC(C3)(C1)n1c(nc3ccc(N4CCOCC4)cc31)NC(=O)c1cc-2c(=O)n(C)c1 (single isomer, unassigned) [Example A62B] = 809
• C[C@@H]1CCCOc2c(cnn2C)-c2cc(cn(C)c2=O)C(=O)Nc2nc3ccc(N4CC5(CCN(C)CC5)C4)cc3n2C1 = 74
• CN1CCN(C2CCN(c3ccc4nc5n(c4c3)C34CCC(CN(CCOc6c(cnn6C)-c6cc(cn(C)c6=O)C(=O)N5)C3)C4)C2)CC1 (single isomer, unassigned) [Example A80B1] = 9.3

====

Listing of recorded GI50 by entry.
Tested on: Ba/F3 cells expressing EGFR mutations
Assay: Cell proliferation assay, Ba/F3 cells expressing EGFR mutations (CellTiter-Glo, 72 hours)
Type: cell-based
Settings: BaF3 cells, EGFR DEL19 - C797S, read-out: GI50 DEL19 - C797S/BaF3
Metric: GI50 (nM)

* Cc1cc2cc(n1)-c1cnn(C)c1OCCN1CC3CCC(C3)(C1)n1c(nc3ccc(N4CC5CC4CN5C)cc31)NC2=O (single isomer, unassigned) [Example B53B] | 2
* Cc1cc2cc(n1)-c1cnn(C)c1OCCN1CC3CCC(C3)(C1)n1c(nc3ccc(N(C)CCN(C)C)cc31)NC2=O (single isomer, unassigned) [Example B47A] | 371
* Cc1cc2cc(n1)-c1cnn(C)c1OCCN1CC3CCC(C3)(C1)n1c(nc3ccc(N4CCC5(CC4)CCN5C)cc31)NC2=O (single isomer, unassigned) [Example B54A] | 280
* Cc1cc2cc(n1)-c1cnn(C)c1OCCN1CC3CCC(C3)(C1)n1c(nc3ccc(N4CCC5(CN(C)C5)C4)cc31)NC2=O (single isomer, unassigned) [Example B50B] | 2
* Cc1cc2cc(n1)-c1cnn(C)c1OCCN1CCOCC(C1)n1c(nc3ccccc31)NC2=O (stereo not drawn) [Example B7B] | 173
* Cc1cc2cc(n1)-c1cnn(C)c1OCCN1CC3CCC(C3)(C1)n1c(nc3ccc(N4CCN(C5CC5)CC4)cc31)NC2=O (single isomer, unassigned) [Example B55A] | 549
* Cc1cc2cc(n1)-c1cnn(C)c1OCCN1CC3CCC(C3)(C1)n1c(nc3ccc(N4CCC5(CCN(C)CC5)C4)cc31)NC2=O (single isomer, unassigned) [Example B51B] | 2
* Cc1cc2cc(n1)-c1cnn(C)c1OCCN1CC3CCC(C3)(C1)n1c(nc3ccc(N4CCN(C5CC5)CC4)cc31)NC2=O (single isomer, unassigned) [Example B55B] | 2
* Cc1cc2cc(n1)-c1cnn(C)c1OCCN1CC3CCC(C3)(C1)n1c(nc3ccc(N4CCOCC4)cc31)NC2=O (single isomer, unassigned) [Example B10A] | 0.79
* Cc1cc2cc(n1)-c1cnn(C)c1OCCN1CC3CCC(C3)(C1)n1c(nc3ccc(N4CC[C@@H](N(C)C)C4)cc31)NC2=O (single isomer, unassigned) [Example B42A] | 865
* Cc1cc2cc(n1)-c1cnn(C)c1OCCN1CC3CCC(C3)(C1)n1c(nc3ccc(N4CCC(N(C)C)CC4)cc31)NC2=O (single isomer, unassigned) [Example B40A] | 212
* Cc1cc2cc(n1)-c1cnn(C)c1OCCN1CC3CCC(C3)(C1)n1c(nc3ccc(N4CCC5(CCN(C)C5)CC4)cc31)NC2=O (single isomer, unassigned) [Example B52B] | 2
* Cc1cc2cc(n1)-c1cnn(C)c1OCCN1CC3CCC(C3)(C1)n1c(nc3ccc(N4CCC(N5CCOCC5)C4)cc31)NC2=O (single isomer, unassigned) [Example B44A2] | 873
* Cc1cc2cc(n1)-c1cnn(C)c1OCCN1CC3CCC(C3)(C1)n1c(nc3ccc(N4CC(N5CCOCC5)C4)cc31)NC2=O (single isomer, unassigned) [Example B48A] | 114
* Cc1cc2cc(n1)-c1cnn(C)c1OCCN1CC3CCC(C3)(C1)n1c(nc3ccc(N4CCN(C5COC5)CC4)cc31)NC2=O (single isomer, unassigned) [Example B58A] | 163
* Cc1cc2cc(n1)-c1cnn(C)c1OCCN1CC3CCC(C3)(C1)n1c(nc3ccc(N4CCC5(CCN(C)C5)CC4)cc31)NC2=O (single isomer, unassigned) [Example B52A] | 102
* Cc1cc2cc(n1)-c1cnn(C)c1OCCN1CC3CCC(C3)(C1)n1c(nc3ccc(N4CC5CC4CN5C)cc31)NC2=O (single isomer, unassigned) [Example B53A] | 348
* Cc1cc2cc(n1)-c1cnn(C)c1OCCN1CC3CCC(C3)(C1)n1c(nc3ccc(N4CCC(N5CCOCC5)C4)cc31)NC2=O (single isomer, unassigned) [Example B44B1] | 2
* Cc1cc2cc(n1)-c1cnn(C)c1OCCN1CC3CCC(C3)(C1)n1c(nc3ccc(N(C)CCCN(C)C)cc31)NC2=O (single isomer, unassigned) [Example B45A] | 239
* Cc1cc2cc(n1)-c1cnn(C)c1OCCN1CC3CCC(C3)(C1)n1c(nc3ccc(N4CCC(N5CCN(C)CC5)CC4)cc31)NC2=O (single isomer, unassigned) [Example B59A] | 227
* Cc1cc2cc(n1)-c1cnn(C)c1OCCN1CC3CCC(C3)(C1)n1c(nc3ccc(N4CC[C@H](N(C)C)C4)cc31)NC2=O (single isomer, unassigned) [Example B41B] | 2
